biological target: Cytochrome P450 2C19 (Homo sapiens); assay: qHTS Assay for Inhibitors and Substrates of Cytochrome P450 2C19 (AID 899); settings: recombinant CYP2C19, luciferin-H EGE luminescence; series mostly up to 57.1 µM; further: potency means the concentration at half of the fitted maximal effect; nearly all actives have a fitted effect of over 60% in size
Results filed as inconclusive are left out. Calls of active or inactive are those of the source. The call rests on the fitted dose curve; in most records, active means well fitted inhibition curve with a large enough effect; inconclusive means small, poorly fitted or top-dose-only effect; inactive means no such curve, though single readings can be large or run the other way.
Task for the reader: assign each of the following molecules its reported Potency.

Please report the recorded Potency for O=c1cnc2cnc(Oc3ccccc3)nc2n1Cc1cccs1 . 1260 nM (active)

What Potency value was documented for this molecule, FC(F)(F)c1ccccc1-c1nc(NCc2cccnc2)c2ccccc2n1 ? 3980 nM (active)

So what does the record say about Potency for Clc1ccccc1NN(Cc1ccncc1)c1ccccc1Cl ? 1260 nM (active)

I am curious: what Potency value has been reported for COc1ccccc1-c1ccc2ncnc(N3CCOCC3)c2c1 ? 1260 nM (active)

Quick one: Potency of COc1cccc(-c2ccc3ncnc(N4CCNCC4)c3c2)c1 ? 3160 nM (active)

I'd like to know its Potency. The molecule in question is CCNc1ncc2nc(C)c(=O)n(CCc3ccccc3)c2n1 316 nM (active)
